target: human GLP-1 receptor (human, UniProt P43220 24-463)
test-summary: cell-based or functional assay
Bridges are numbered along the chain shown (N, C = ends). Where no end group is shown, it is not given here. [ ]: non-standard residue; d: D form. The star is where a group is joined. Acetyl(2-(4-imidazolyl)) = O=C(Cc1c[nH]cn1)*; Aib = CC(C)(N)C(=O)O
Parameter: In vitro activity relative to native peptide (%) vs. GLP-1. Scope: all listed entries.
// return numeric value only (unit: %, not printed)

# example entries with known answers
1) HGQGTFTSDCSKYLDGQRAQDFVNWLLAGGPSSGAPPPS [triple agonist of SEQ ID NO: 48] : 1.5
2) [Acetyl(2-(4-imidazolyl))]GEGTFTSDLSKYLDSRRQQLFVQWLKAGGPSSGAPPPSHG [triple agonist of SEQ ID NO: 11] : 1.4

Turning now to a further record.
Problem: Report In vitro activity relative to native peptide (%) vs. GLP-1 for H[Aib]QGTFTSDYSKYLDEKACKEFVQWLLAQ (bridge 16-20) [triple agonist of SEQ ID NO: 31] please.
Solution: 135
